- Tested On: Nuclear receptor subfamily 1 group I member 2 (Homo sapiens, UniProt O75469)
- Sequence (O75469 whole entry): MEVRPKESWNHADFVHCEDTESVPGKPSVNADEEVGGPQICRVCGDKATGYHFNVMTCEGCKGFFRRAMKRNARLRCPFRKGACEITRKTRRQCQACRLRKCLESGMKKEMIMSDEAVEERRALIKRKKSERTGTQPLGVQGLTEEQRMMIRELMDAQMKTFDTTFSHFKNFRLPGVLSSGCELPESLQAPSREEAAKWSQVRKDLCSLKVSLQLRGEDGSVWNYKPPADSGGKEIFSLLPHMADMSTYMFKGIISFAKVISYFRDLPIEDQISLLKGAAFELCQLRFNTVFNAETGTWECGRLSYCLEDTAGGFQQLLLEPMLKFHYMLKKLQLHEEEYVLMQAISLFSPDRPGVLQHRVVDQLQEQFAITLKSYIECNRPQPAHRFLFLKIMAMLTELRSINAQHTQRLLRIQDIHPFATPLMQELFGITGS
- Method Summary: Antagonist activity at PXR (unknown origin) transfected in human HepG2 cells assessed as inhibition of rifampicin-induced reporter gene transcription
- Type: cell-based
Endpoint: IC50 (nM)
Please reply with the bare figure in nM and do not write the unit itself.

Challenge: For the molecule Cc1ccc(SC(=O)c2c(C)noc2-c2cc(C)on2)cc1 , what IC50 is on record?
Response given: 850

----------
- Tested On: Nuclear receptor subfamily 1 group I member 2 (Homo sapiens, UniProt O75469)
- Method Summary: Antagonist activity at human PXR transfected in human HepG2 cells co-transfected with pSG5-RXR/pCMV-beta-galactosidase/p(CYP3A4)-TK-Luc assessed as inhibition of rifaximin-induced transactivation at 50 uM after 18 hrs by luciferase reporter gene assay
- Format: cell-based
- Experimental Conditions: hepg2, 18 h
Endpoint: inhibition (INH)

# annotated cases, reported inhibition (INH) shown
Cc1c(-c2ccc(O)cc2)[nH]c2ccc(OCCCO)cc12 | Active
Cc1c(-c2ccc(O)cc2)[nH]c2ccc(O)cc12 | Active
Cc1c(-c2ccc(OS(=O)(=O)[O-])c(OS(=O)(=O)[O-])c2)[nH]c2ccc(OS(=O)(=O)[O-])cc12.[Na+].[Na+].[Na+] | Not Active
Cc1c(-c2ccc(OS(=O)(=O)[O-])c(OS(=O)(=O)[O-])c2)[nH]c2ccc(OCCCOS(=O)(=O)[O-])cc12.[Na+].[Na+].[Na+] | Not Active
Cc1c(-c2ccc(OS(=O)(=O)[O-])cc2)[nH]c2ccc(OCCCOS(=O)(=O)[O-])cc12.[Na+].[Na+] | Not Active

Challenge: Param item = Cc1c(-c2ccc(OS(=O)(=O)[O-])cc2)[nH]c2ccc(OS(=O)(=O)[O-])cc12.[Na+].[Na+] ; retrieve measured inhibition (INH).
Response given: Not Active

Challenge: So what's the measured inhibition (INH) for this one? CCCn1c(-c2ccc(O)c(O)c2)c(C)c2cc(O)ccc21
Response given: Active

Challenge: Any idea what inhibition (INH) was measured for Cc1c(-c2ccc(OS(=O)(=O)[O-])cc2)[nH]c2ccc(OCCOS(=O)(=O)[O-])cc12.[Na+].[Na+] ?
Response given: Not Active

----------
- Tested On: Nuclear receptor subfamily 1 group I member 2 (Homo sapiens, UniProt O75469)
- Method Summary: Agonist activity at human PXR transfected in human HepG2 cells co-transfected with pSG5-RXR/pCMV-beta-galactosidase/p(CYP3A4)-TK-Luc at 10 uM after 18 hrs by luciferase reporter gene assay
- Format: cell-based
- Experimental Conditions: hepg2, 18 h
Endpoint: Activity

The cases that follow already have their Activity on record.
Cc1c(-c2ccc(OS(=O)(=O)[O-])cc2)[nH]c2ccc(OCCCOS(=O)(=O)[O-])cc12.[Na+].[Na+] | Not Active
Cc1c(-c2ccc(O)c(O)c2)[nH]c2ccc(OCCCO)cc12 | Not Active
Cc1c(-c2ccc(O)c(O)c2)[nH]c2ccc(O)cc12 | Not Active
Cc1c(-c2ccc(OS(=O)(=O)[O-])cc2)[nH]c2ccc(OS(=O)(=O)[O-])cc12.[Na+].[Na+] | Not Active
Cc1c(-c2ccc(O)cc2)[nH]c2ccc(O)cc12 | Not Active

Challenge: What reported Activity corresponds to Cc1c(-c2ccc(OS(=O)(=O)[O-])c(OS(=O)(=O)[O-])c2)[nH]c2ccc(OCCCOS(=O)(=O)[O-])cc12.[Na+].[Na+].[Na+] on Nuclear receptor subfamily 1 group I member 2 (Homo sapiens, UniProt O75469)?
Response given: Not Active

Challenge: Give Nuclear receptor subfamily 1 group I member 2 (Homo sapiens, UniProt O75469) Activity for CO[C@H]1/C=C/O[C@@]2(C)Oc3c(C)c(O)c4c(O)c(c5c(nc6cc(C)ccn65)c4c3C2=O)NC(=O)/C(C)=C\C=C\[C@H](C)[C@H](O)[C@@H](C)[C@@H](O)[C@@H](C)[C@H](OC(C)=O)[C@@H]1C
Response given: Active

Challenge: Recall the recorded Activity for C[C@H](CCCOS(=O)(=O)[O-])[C@H]1CC[C@H]2[C@@H]3CC[C@H]4C[C@H](OS(=O)(=O)[O-])[C@@H](OS(=O)(=O)[O-])C[C@]4(C)[C@H]3CC[C@]12C.[Na+].[Na+].[Na+] with Nuclear receptor subfamily 1 group I member 2 (Homo sapiens, UniProt O75469) and state it.
Response given: Active

----------
- Tested On: Nuclear receptor subfamily 1 group I member 2 (Homo sapiens, UniProt O75469)
- Method Summary: Antagonist activity at human PXR transfected in African green monkey CV1 cells assessed as inhibition of SR12813-induced transactivation after 24 hrs by luciferase reporter gene assay
- Type: cell-based, CV-1
Endpoint: pIC50
Hey, just a heads up that pIC50 is the negative log base 10 of the concentration in molar.

Challenge: Quick check: pIC50 of O=c1oc2cc(O)ccc2c2oc3cc(O)ccc3c12 [COUMESTROL] ?
Response given: 4.92

Each recorded value in this set is attributed to ChEMBL document CHEMBL3286263.
